Target: T1, monkey Trop2 protein (Sino Biological, #90893-C08H) (monkey, UniProt A0A2K5UE71 27-274)
T1 construct: bought protein; also called monkey Trop2 protein antigen (His tag)
T1 sequence: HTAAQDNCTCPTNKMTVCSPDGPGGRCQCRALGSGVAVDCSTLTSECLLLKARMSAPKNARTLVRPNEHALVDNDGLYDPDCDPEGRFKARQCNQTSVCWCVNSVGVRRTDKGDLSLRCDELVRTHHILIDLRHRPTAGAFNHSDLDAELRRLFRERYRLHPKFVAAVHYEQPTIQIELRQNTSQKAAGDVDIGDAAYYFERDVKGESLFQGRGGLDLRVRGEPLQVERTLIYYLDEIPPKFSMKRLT
Test: BLI, Octet RED96, AHC sensor
Experimental: Specifically, a human TROP2 protein (Sino Biological, #10428-H08H) or a monkey Trop2 protein (Sino Biological, #90893-C08H) was diluted to 200 nM with a PBS buffer (pH 7.4) containing 0.1% (w/w) BSA and 0.02% (v/v) tween 20, and incubated with the AHC sensor respectively. […] The association and dissociation signals between the Trop2 antibody and the human Trop2 protein or monkey Trop2 protein were recorded by Octet Red 96 in real time. […]
MEASURE: Kd (nM)

• comparative example 2 antibody Tab (hRS7) (antibody, human IgG1, kappa, V domains shown, prepared on the basis of sacituzumab govitecan (ChemPartner, #T07-001); naked antibody) VH: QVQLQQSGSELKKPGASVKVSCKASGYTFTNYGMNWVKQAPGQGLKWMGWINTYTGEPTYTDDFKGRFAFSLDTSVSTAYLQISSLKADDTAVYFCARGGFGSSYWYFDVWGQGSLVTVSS VL: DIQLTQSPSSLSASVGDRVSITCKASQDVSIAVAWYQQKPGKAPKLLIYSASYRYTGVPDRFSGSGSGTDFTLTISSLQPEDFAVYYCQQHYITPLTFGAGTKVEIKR = 0.137
• PR001143 (antibody, human IgG1, kappa, V domains shown, fully human IgG1/kappa; also called antibody No. (10)) VH: QVQLVESGGGVVQPGRSLRVSCAASGFIFSTYGMHWVRQAPGKGLEWVAVIWYDGSNEDYVDSVKGRFTISRDNSKNTLYLQMNSLRGEDTAVYYCARGGYNSGWWAFDVWGQGTLVTVSS VL: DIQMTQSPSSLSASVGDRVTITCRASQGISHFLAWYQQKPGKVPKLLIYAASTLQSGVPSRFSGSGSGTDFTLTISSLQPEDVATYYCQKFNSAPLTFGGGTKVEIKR = 12.4
